# SYSTEM_TESTED: UniProt O54798
# EXPERIMENTAL_DETAILS: Agonist activity at mouse BRS3
Listed next: entries and their corresponding EC50.
ASSAY_METRIC: EC50 (nM)

{"columns": ["STRUCTURE_STRING", "SYSTEM_TESTED", "ASSAY_METRIC", "REPORTED_MEASUREMENT"],
 "data": [
  ["CCC(C)(C)Cc1c[nH]c(CCc2ccc(-c3ccccc3OCc3nc(C(F)(F)F)n[nH]3)cc2)n1", "UniProt O54798", "EC50", 12],
  ["CCC(C)(C)Cc1c[nH]c(CCc2ccc(N3CCCC[C@@H]3C(=O)O)cc2)n1", "UniProt O54798", "EC50", 12],
  ["CCC(C)(C)Cc1c[nH]c(CCc2ccc(-c3ccccc3O)cc2)n1", "UniProt O54798", "EC50", 34]
]}

====

# EXPERIMENTAL_DETAILS: Drug level in rat brain at 2 mg/kg, iv after 1 hr
# Type: ADME, organism-based
# Set-up: dose 2 mg/kg, route intravenous
# CONDITION_DETAILS: read-out: Drug uptake

{"columns": ["STRUCTURE_STRING", "concentration at 1 h / nM"],
 "data": [
  ["CCC(C)(C)Cc1c[nH]c(CCc2ccc(-c3ccccc3OCc3nnn[nH]3)cc2)n1", 10]
]}

====

# reported Activity; entries follow
# SYSTEM_TESTED: Bombesin receptor subtype-3 (Homo sapiens)
# EXPERIMENTAL_DETAILS: Agonist activity at human BRS3 relative to [D-Tyr6,b-Ala11,Phe13,Nle14]-Bombesin
# Type: functional
ASSAY_METRIC: Activity (%)

{"columns": ["COMPOUND", "UNIT_SPEC", "REPORTED_MEASUREMENT"],
 "data": [
  ["CCC(C)(C)Cc1c[nH]c(CCc2ccc(N3CCCC[C@@H]3C(=O)O)cc2)n1", "%", 100],
  ["CCC(C)(C)Cc1c[nH]c(CCc2ccc3c(c2)CNC(=O)c2ccccc2-3)n1", "%", 98],
  ["c1ccc(-c2nnn[nH]2)c(-c2ccc(CCc3nc(CC4CCCC4)c[nH]3)cc2)c1", "%", 112],
  ["CCC(C)(C)Cc1c[nH]c(CCc2ccc3c(c2)CN(C)C(=O)c2ccccc2-3)n1", "%", 96],
  ["CCC(C)(C)Cc1c[nH]c(CCc2ccc(-c3ccccc3OCc3nc(N)n[nH]3)cc2)n1", "%", 98],
  ["O=C1NC(=O)C(c2ccccc2-c2ccc(CCC3N=CC(CC4CCCC4)=N3)cc2)S1 (configuration not stated)", "%", 94],
  ["CCC(C)(C)Cc1c[nH]c(CCc2ccc(-c3ccccc3OCc3ncn[nH]3)cc2)n1", "%", 113],
  ["CCC(C)(C)Cc1c[nH]c(CCc2ccc(N3CCCC[C@@H]3c3ncn[nH]3)cc2)n1", "%", 96],
  ["CCC(C)(C)Cc1c[nH]c(CCc2ccc(-c3ccccc3OCc3nc(C(F)(F)F)n[nH]3)cc2)n1", "%", 89],
  ["CCC(C)(C)Cc1c[nH]c(CCc2ccc(-c3ccccc3O)cc2)n1", "%", 97],
  ["CCC(C)(C)Cc1c[nH]c(CCc2ccc(-c3ccccc3OCC(=O)O)cc2)n1", "%", 97],
  ["CCC(C)(C)Cc1c[nH]c(CCc2ccc(-c3ccccc3OCc3cnn[nH]3)cc2)n1", "%", 97],
  ["CCC(C)(C)Cc1c[nH]c(CCc2ccc(-c3ccccc3OCc3nc(=O)[nH][nH]3)cc2)n1", "%", 107],
  ["CCC(C)(C)Cc1c[nH]c(CCc2ccc(N3CCCC[C@@H]3c3nnn[nH]3)cc2)n1", "%", 100],
  ["CCC(C)(C)Cc1c[nH]c(CCc2ccc(N3CCCc4cn[nH]c43)cc2)n1", "%", 101],
  ["CCC(C)(C)Cc1c[nH]c(CCc2ccc(-c3ccccc3OCc3nnn[nH]3)cc2)n1", "%", 111],
  ["CCC(C)(C)Cc1c[nH]c(CCc2ccc(-c3ccccc3OCc3nc(=S)[nH][nH]3)cc2)n1", "%", 114]
]}

====

# EXPERIMENTAL_DETAILS: Total plasma concentration in rat at 1 mg/kg, iv after 1 hr
# Format: ADME, organism-based
# Set-up: dose 1 mg/kg, route intravenous
# reported concentration at 1 h; entries follow

{"columns": ["STRUCTURE_STRING", "concentration at 1 h / nM"],
 "data": [
  ["CCC(C)(C)Cc1c[nH]c(CCc2ccc(N3CCCC[C@@H]3C(=O)O)cc2)n1", 210],
  ["CCC(C)(C)Cc1c[nH]c(CCc2ccc(-c3ccccc3OCc3nc(N)n[nH]3)cc2)n1", 860],
  ["CCC(C)(C)Cc1cnc(CCc2ccc3c(c2)CNC(=O)c2ccccc2-3)[nH]1", 310],
  ["CCC(C)(C)Cc1c[nH]c(CCc2ccc(-c3ccccc3OCc3nc(=S)[nH][nH]3)cc2)n1", 4960]
]}

====

# EXPERIMENTAL_DETAILS: Ratio of drug level in brain to plasma in rat at 1 mg/kg, iv after 1 hr
# Type: ADME, organism-based
# Parameters: dose 1 mg/kg, route intravenous

{"columns": ["STRUCTURE_STRING", "Kp at 1 h"],
 "data": [
  ["CCC(C)(C)Cc1cnc(CCc2ccc3c(c2)CNC(=O)c2ccccc2-3)[nH]1", 0.068],
  ["CCC(C)(C)Cc1c[nH]c(CCc2ccc(N3CCCC[C@@H]3C(=O)O)cc2)n1", 0.04],
  ["CCC(C)(C)Cc1c[nH]c(CCc2ccc(-c3ccccc3OCc3nc(N)n[nH]3)cc2)n1", 0.016],
  ["CCC(C)(C)Cc1c[nH]c(CCc2ccc(-c3ccccc3OCc3nc(=S)[nH][nH]3)cc2)n1", 0.006]
]}

====

# SYSTEM_TESTED: Bombesin receptor subtype-3 (Mus musculus)
# Sequence (O54798 whole entry): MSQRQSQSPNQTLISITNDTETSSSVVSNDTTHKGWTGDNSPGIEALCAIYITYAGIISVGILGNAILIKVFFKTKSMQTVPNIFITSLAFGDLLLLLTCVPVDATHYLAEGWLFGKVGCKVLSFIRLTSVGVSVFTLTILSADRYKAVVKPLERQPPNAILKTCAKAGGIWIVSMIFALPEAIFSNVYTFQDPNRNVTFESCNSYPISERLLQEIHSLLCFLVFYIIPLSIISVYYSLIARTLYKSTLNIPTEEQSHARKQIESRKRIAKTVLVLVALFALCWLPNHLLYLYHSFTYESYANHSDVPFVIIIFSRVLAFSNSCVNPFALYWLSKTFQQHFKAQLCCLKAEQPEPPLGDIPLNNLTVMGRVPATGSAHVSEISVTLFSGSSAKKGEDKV
# EXPERIMENTAL_DETAILS: Agonist activity at mouse BRS3 relative to [D-Tyr6,b-Ala11,Phe13,Nle14]-Bombesin
# Type: functional

{"columns": ["STRUCTURE_STRING", "SYSTEM_TESTED", "Activity [%]"],
 "data": [
  ["CCC(C)(C)Cc1c[nH]c(CCc2ccc3c(c2)CN(C)C(=O)c2ccccc2-3)n1", "Bombesin receptor subtype-3 (Mus musculus)", 119],
  ["c1ccc(-c2nnn[nH]2)c(-c2ccc(CCc3nc(CC4CCCC4)c[nH]3)cc2)c1", "Bombesin receptor subtype-3 (Mus musculus)", 85],
  ["CCC(C)(C)Cc1c[nH]c(CCc2ccc(-c3ccccc3OCc3nc(=S)[nH][nH]3)cc2)n1", "Bombesin receptor subtype-3 (Mus musculus)", 120]
]}

The measured values listed here are drawn from ChEMBL document CHEMBL1157884.
